Source: patent US20230107642A1

Biological target: K-Ras G12C (Homo sapiens, UniProt P01116, G12C)
Construct: This protein contained 188 amino acids in total, including an N-terminal 6-Histidine tag; made in house; host or cells: E. coli BL21
Assay: CAF assay (% CAF; method in Example 7, not in this part)
Type: binding
Conditions: 10 uM compound, 1 h incubation
MEASUREMENT KIND: % CAF @ 10 uM, 1h (%)

C=CC(=O)N1CCN(c2nc(=O)n3c4c(c(-c5ccc(F)cc5F)c(C(F)(F)F)cc24)SC[C@H](OC)C3)[C@@H](C)C1 [Example 465] | 96
C=CC(=O)N1C[C@H](C)N(c2nc(=O)n3c4c(c(-c5cc(F)c(F)cc5F)c(C(F)(F)F)cc24)SC[C@@H]3COC)C[C@H]1C [Example 491] | 60
C=CC(=O)N1CCN(c2nc(=O)n3c4c(c(-c5ccc(F)cc5)c(C(F)(F)F)cc24)SC[C@@H]3CC2CCN(CC(F)F)CC2)[C@@H](C)C1 [Example 428] | 79.6
C=CC(=O)N1C[C@H](C)N(c2nc(=O)n3c4c(c(-c5cc(Cl)c(F)cc5F)c(C(F)(F)F)cc24)SC[C@@H]3COC)C[C@H]1C (atropisomer, axis not shown) [Example 545] | 94.1
C=CC(=O)N1CCN(c2nc(=O)n3c4c(c(-c5cc(Cl)c(F)cc5F)c(Cl)cc24)SC[C@@H]3CN2CCN(CC)CC2)[C@@H](C)C1 [Example 412] | 73.6
C=CC(=O)N1C2CN(c3nc(=O)n4c5c(c(-c6ccc(F)cc6F)c(C(F)(F)F)cc35)SC[C@@H]4COC)CC1CC(F)(F)C2 [Example 523] | 68.9
C=CC(=O)N1[C@H](C)CN(c2nc(=O)n3c4c(c(-c5ccc(F)cc5F)c(C(F)(F)F)cc24)SC[C@@H]3CN2CCC3(CC2)COC3)C[C@@H]1C (atropisomer, axis not shown) [Example 576] | 80.5

----------
Target: Cys12 of the KRAS 4B G12C protein (Homo sapiens, UniProt P01116, G12C)
Construct: This protein contained 188 amino acids in total, including an N-terminal 6-Histidine tag; made in house; host or cells: E. coli BL21
Test: In vitro covalent adduct formation (CAF) assay, LC-MS intact mass
Assay type: binding
Conditions: 10 uM compound, 60 min
MEASUREMENT KIND: % CAF 10 uM @ 60 min (%)

Would you please look over these solved cases?
C=CC(=O)N1[C@H](C)CN(c2nc(=O)n3c4c(c(-c5cc(Cl)c(F)cc5F)c(C(F)(F)F)cc24)SC[C@@H]3CN(C)C)C[C@@H]1C (atropisomer, axis not shown) [Example 1376] | 83.9
C=CC(=O)N1C[C@H](C)N(c2nc(=O)n3c4c(c(-c5cc(Cl)c(F)cc5F)c(C(F)(F)F)cc24)SC[C@@H]3CN2C[C@@H]3C[C@H]2CO3)C[C@H]1C (atropisomer, axis not shown) [Example 1334] | 80
C=CC(=O)N1C[C@H](C)N(c2nc(=O)n3c4c(c(-c5ccc(F)c(Cl)c5)c(C(F)(F)F)cc24)SC[C@@H]3COCOC)C[C@H]1C | 92.1
C=CC(=O)N1C[C@H](C)N(c2nc(=O)n3c4c(c(-c5cc(Cl)c(F)cc5F)c(C(F)(F)F)cc24)SCC2(CCOCC2)C3)C[C@H]1C | 84
C=CC(=O)N1[C@H](C)CN(c2nc(=O)n3c4c(c(-c5cccc6cnn(C)c56)c(C(F)(F)F)cc24)SC[C@@H]3CN2C[C@@H]3C[C@H]2CO3)C[C@@H]1C | 92.5

P = [2H]C1([2H])N(C(=O)C=C)C([2H])([2H])C([2H])([2H])N(c2nc(=O)n3c4c(c(-c5cc(Cl)c(F)cc5F)c(C(F)(F)F)cc24)SCC2(COC2)C3)C1([2H])[2H]
Q = C=CC(=O)N1C[C@H](C)N(c2nc(=O)n3c4c(c(-c5cc(Cl)c(F)cc5F)c(C(F)(F)F)cc24)SC[C@@H]3CN2C[C@@H]3C[C@H]2CO3)C[C@H]1C (atropisomer, axis not shown) [Example 1335]
Challenge: Could you determine which record has the numerically smaller % CAF 10 uM @ 60 min? Candidates: P and Q Write the label of whichever entry you select.
Response given: Q
